System: Digitaria sanguinalis
Assay: Comparison experiment (post-emergence) against racemate / S configuration
Type: in vivo
Settings: Table 6, post-seedling test conditions
Text: The above growth control rates are fresh weight control rates. […]
readout_kind: Results of comparison experiment, Digitaria sanguinalis (30 g/ha)

INSERT INTO results (compound, tgt, result) VALUES
  ('CSc1c(C(=O)Nc2nnc(C)o2)ccc(C(F)(F)F)c1[S+](C)[O-] (stereo not shown) [Control Compound F′]', 'Digitaria sanguinalis', '0%'),
  ('CSc1c(C(=O)Nc2nnc(C)o2)ccc(C(F)(F)F)c1[S@@+](C)[O-] [Compound 547]', 'Digitaria sanguinalis', '90%'),
  ('CSc1c(C(=O)Nc2nnc(C)o2)ccc(C(F)(F)F)c1[S+](C)[O-] (stereo not shown) [Control Compound E′]', 'Digitaria sanguinalis', '40%');

Let us examine a further case.
Ask: Bench note: what Results of comparison experiment, Digitaria sanguinalis (30 g/ha) did CC[S+]([O-])c1c(C(F)(F)F)ccc(C(=O)Nc2nnc(C)o2)c1SC (stereo not shown) [Control Compound A′, reference compound] show?
Reply: 50%
